# Assay Procedure: Pseudomonas biofilm growth suppression – PAO1 strain, BacTiter-Glo luminescence, LB-PBS, primary screen (AID 1144)
# Experimental Setup: P. aeruginosa PAO1 biofilm, 12 h, higher = more signal
Class field: derived from z-score; ranges zone 1: < -0.5; zone 2: ≥ -0.5 and < 0.07; zone 3: ≥ 0.07

[
  {
    "Molecule": "COc1ccccc1CN1C(=O)c2ccccc2[C@](Cc2ccccc2I)(C(=O)NCC(C)C)[C@@H]1c1ccc(CO)cc1",
    "Class Assignment": "zone 3"
  },
  {
    "Molecule": "C=CCOC(=O)[C@@H]1[C@H]2C(=O)O[C@H](c3ccccc3)[C@H](c3ccccc3)N2[C@H](c2ccc(OCCOC(=O)[C@H]3C[C@H]4C(=O)N[C@@H](CCCCN(C)C)C(=O)N4[C@H]3c3ccc(O)cc3)cc2)[C@@]12C(=O)Nc1ccc(I)cc12",
    "Class Assignment": "zone 1"
  },
  {
    "Molecule": "COC(=O)C[C@H]1O[C@@]2(C[C@@H]1[Si](C)(C)C)C(=O)N(C)c1ccccc12",
    "Class Assignment": "zone 2"
  },
  {
    "Molecule": "COc1ccc(C(=O)Nc2cccc(CN3C(=O)[C@@]4(O[C@@H](CC(=O)N5CCC[C@H]5CO)[C@H]([Si](C)(C)c5ccc(OC)cc5)[C@H]4C)c4ccccc43)c2)cc1",
    "Class Assignment": "zone 1"
  },
  {
    "Molecule": "C=C(CCCC)C(=O)CC[C@@H](OC(=O)c1ccccc1-c1ccccc1C(=O)O)c1ccccc1OCCO",
    "Class Assignment": "zone 2"
  },
  {
    "Molecule": "COC(=O)C(CC#Cc1ccc2c(c1)[C@]1(C(=O)N2)[C@H](c2ccccc2OCCO)N2[C@H](c3ccccc3)[C@H](c3ccccc3)OC(=O)[C@H]2[C@@H]1C(=O)N1CCc2cc(OC)c(OC)cc2C1)C(=O)OC",
    "Class Assignment": "zone 1"
  },
  {
    "Molecule": "COc1ccc([Si](C)(C)[C@H]2[C@H](CC(=O)N3Cc4ccccc4C[C@H]3CO)O[C@@]3(C(=O)N(c4ccccc4)c4ccccc43)[C@@H]2C)cc1",
    "Class Assignment": "zone 3"
  },
  {
    "Molecule": "COC(=O)[C@]1(Cc2ccccc2)N=C(c2ccc(OCCCO)cc2)O[C@@H]1c1ccccc1CN=[N+]=[N-]",
    "Class Assignment": "zone 1"
  },
  {
    "Molecule": "N#Cc1ccc(C(O)C2C=CC3C(=O)NC(=O)C3N2Nc2ccc(Cl)cc2Cl)cc1 (configuration not stated)",
    "Class Assignment": "zone 2"
  },
  {
    "Molecule": "C=C(C)[C@@H]1CC=C(C(O)C2C=CC3C(=O)N(C)C(=O)C3N2Nc2ccc([N+](=O)[O-])cc2[N+](=O)[O-])CC1 (some centres not stated)",
    "Class Assignment": "zone 3"
  },
  {
    "Molecule": "NC(=O)NCC#Cc1ccc2c(c1)[C@]1(C(=O)N2)[C@H](c2ccc(OCCO)cc2)N2[C@H](c3ccccc3)[C@H](c3ccccc3)OC(=O)[C@H]2[C@@H]1C(=O)O",
    "Class Assignment": "zone 1"
  },
  {
    "Molecule": "CC(C)C(CO)N1C(=O)[C@@H]2C3C(=O)OCCC/C=C\\[C@H]3OC23C=CCN(Cc2ccccc2)C(=O)[C@@H]13 (some centres not stated)",
    "Class Assignment": "zone 3"
  },
  {
    "Molecule": "C=C(COC)C(=O)CC[C@H](OC(=O)c1cccnc1)c1ccc(OCCO)cc1",
    "Class Assignment": "zone 3"
  },
  {
    "Molecule": "CN(C)CCCNC(=O)[C@@]1(Cc2ccccc2I)c2ccccc2C(=O)N(C2CCCCC2)[C@H]1c1ccc(CO)cc1",
    "Class Assignment": "zone 3"
  },
  {
    "Molecule": "C=CCOC(=O)[C@H]1[C@@H]2C(=O)O[C@@H](c3ccccc3)[C@@H](c3ccccc3)N2[C@@H](c2ccc(OCCOC(=O)[C@@H]3C[C@@H]4C(=O)N[C@@H](CCCCNC(C)=O)C(=O)N4[C@@H]3c3cccc(OCCO)c3)cc2)[C@]12C(=O)Nc1ccccc12",
    "Class Assignment": "zone 2"
  }
]

###

# Tested on: XIP peptide (Xip251-270) binding
# Assay Procedure: XIP fragment 251-270 binding compounds – biochemical, small-molecule microarray, fluorescence 635/667 nm, 0.1 µg/mL protein, primary screen (AID 1182)
# Experimental Setup: fluorescent protein binding, 635 nm, higher = more signal, called active from +8 up or from −8 down

[
  {
    "Compound": "Cc1ccc(S[C@]2(C(=O)NCCCN(C)C)CC(=O)N(Cc3ccccc3C(F)(F)F)[C@@H]2c2ccc(CO)cc2I)cc1",
    "System": "XIP peptide (Xip251-270) binding",
    "composite z-score": 0.223
  },
  {
    "Compound": "CC(C)(C)N1CC=CC23O[C@@H]4/C=C\\CCCOC(=O)C4[C@H]2C(=O)N(CCCO)[C@@H]3C1=O (stereo partly specified)",
    "System": "XIP peptide (Xip251-270) binding",
    "composite z-score": -0.12
  },
  {
    "Compound": "COC(=O)[C@@]1(Cc2ccccc2)[C@H]2c3cc(C(=O)N(C)C)n(CCO)c3C[C@H]2CN1C(=O)c1ccccc1",
    "System": "XIP peptide (Xip251-270) binding",
    "composite z-score": 1.42
  },
  {
    "Compound": "C=CCOC(=O)[C@@H]1[C@H]2C(=O)O[C@H](c3ccccc3)[C@H](c3ccccc3)N2[C@H](c2ccc(OCCOC(=O)[C@H]3C[C@H]4C(=O)N[C@@H](CCCCN(C)C)C(=O)N4[C@H]3c3ccc(O)cc3)cc2)[C@@]12C(=O)Nc1ccc(I)cc12",
    "System": "XIP peptide (Xip251-270) binding",
    "composite z-score": 0.94
  },
  {
    "Compound": "[N-]=[N+]=Nc1ccccc1C[C@@]1(C(=O)NCc2ccccc2)N=C(c2ccc(OCCCO)cc2)O[C@@H]1c1ccccc1N=[N+]=[N-]",
    "System": "XIP peptide (Xip251-270) binding",
    "composite z-score": 1.46
  },
  {
    "Compound": "O=C1c2ccccc2[C@@]2(Cc3ccccc3N(Cc3ccccc3)C2=O)[C@H](c2ccc(CO)cc2)N1Cc1ccccc1Cl",
    "System": "XIP peptide (Xip251-270) binding",
    "composite z-score": 0.0408
  }
]

###

# Assay Procedure: S6 kinase pathway phospho-S6 level changes – cell-based, A549, cytoblot, luminescence, serum-stimulated, primary screen (AID 1158);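 also: serum-stimulated A549 lung adenocarcinoma cells; signal is phosphorylated S6 detected by cytoblot immunostaining with HRP secondary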
# Experimental Setup: 5 h, higher = more signal
Attribute: z-score
Readout Kind: z-score

[
  {
    "Molecule": "CCCCC(O)C1C=CC2C(=O)N(c3ccccc3)C(=O)C2N1Nc1ccc(C#N)cc1 (configuration not stated)",
    "Numeric Readout": -0.809
  },
  {
    "Molecule": "C[C@@H]1ON(c2ccccc2)[C@H](c2ccccc2)[C@H]1C(=O)O",
    "Numeric Readout": 0.0366
  },
  {
    "Molecule": "C=CCC(OC(C)=O)[C@@H]1[C@@H](N(Cc2cccc3ccccc23)C(=O)c2ccc(-c3ccccc3)cc2)c2cc(OCCCO)ccc2N1C(=O)Cc1ccc2ccccc2c1 (some centres not stated)",
    "Numeric Readout": -0.242
  },
  {
    "Molecule": "O=C1C[C@@](C(=O)O)(c2ccc([N+](=O)[O-])cc2)[C@@H](c2ccc(CO)cc2)N1C1CCCCC1",
    "Numeric Readout": 0.197
  },
  {
    "Molecule": "C=CCOC(=O)[C@H]1[C@@H]2C(=O)O[C@@H](c3ccccc3)[C@@H](c3ccccc3)N2[C@@H](c2ccc(OCCOC(=O)[C@@H]3C[C@@H]4C(=O)N[C@@H](CCCC[N+](C)(C)C)C(=O)N4[C@@H]3c3ccc(O)cc3)cc2)[C@]12C(=O)Nc1ccc(I)cc12",
    "Numeric Readout": -2.1
  },
  {
    "Molecule": "C=CCNC(=O)[C@H]1[C@@H]2C(=O)O[C@@H](c3ccccc3)[C@@H](c3ccccc3)N2[C@@H](c2ccc(OCCO)cc2)[C@]12C(=O)Nc1ccccc12",
    "Numeric Readout": 0.0226
  },
  {
    "Molecule": "CCCCC(O)C1C=CC2C(=O)N(c3ccccc3)C(=O)C2N1Nc1ccccc1 (configuration not stated)",
    "Numeric Readout": -0.439
  }
]

###

Attribute: z-score
# Assay Procedure: changes in parasitized red cell lysis, either direction – P. falciparum Indochina, OD700, 3 h, PSAC antagonist project, primary screen (AID 1156)
# Experimental Setup: P. falciparum-infected erythrocytes, osmotic lysis, higher = more signal, called active from +8 up or from −8 down
Readout Kind: z-score

[
  {
    "Compound": "C[N+](C)(C)CCCCNC(=O)[C@H]1C[C@H]2C(=O)N[C@@H](Cc3ccccc3)C(=O)N2[C@H]1c1cccc(OCCO)c1",
    "Readout Kind": "z-score",
    "Numeric Readout": -0.835
  },
  {
    "Compound": "C[N+](C)(C)CCCC[C@@H]1NC(=O)[C@H]2C[C@@H](C(=O)NCCCCCNC(=O)CS)[C@@H](c3cccc(OCCO)c3)N2C1=O",
    "Readout Kind": "z-score",
    "Numeric Readout": -0.89
  },
  {
    "Compound": "COC(=O)[C@@]1(Cc2ccccc2)[C@H]2c3cc(C(=O)N4CCCC4)n(Cc4ccc(OC)c(OC)c4)c3C[C@H]2CN1C(=O)c1ccccc1",
    "Readout Kind": "z-score",
    "Numeric Readout": 2.24
  },
  {
    "Compound": "COC(=O)[C@@]1(Cc2ccccc2)N=C(c2ccc(OCCCO)cc2)O[C@H]1c1ccccc1CN=[N+]=[N-]",
    "Readout Kind": "z-score",
    "Numeric Readout": -0.202
  },
  {
    "Compound": "COC(=O)C[C@H]1O[C@@]2(C[C@@H]1[Si](C)(C)C)C(=O)N(C)c1ccccc12",
    "Readout Kind": "z-score",
    "Numeric Readout": -1.23
  },
  {
    "Compound": "COc1ccc([Si](C)(C)[C@H]2[C@H](CCO)O[C@@]3(C(=O)N(Cc4ccc(NC(=O)[C@H](C)O)cc4)c4ccccc43)[C@@H]2C)cc1",
    "Readout Kind": "z-score",
    "Numeric Readout": 2.52
  },
  {
    "Compound": "CC(=O)OCC1C2CC[C@H]3C(OCc4ccc(F)cc4C(F)(F)F)OC[C@]4(C)[C@H]3C2=C(CN4C(=O)OC(C)(C)C)[C@H](C)C1COC(C)=O (some centres not stated)",
    "Readout Kind": "z-score",
    "Numeric Readout": 1.04
  }
]
